test system: RXF 393 renal; assay: NCI tumour cell line growth inhibition, 48 h
result_type: TGI

Reference set (2 entries):
{"compound": "O=C1CCCC2=C1CC1=C(CCCC1=O)N2c1ccc([N+](=O)[O-])cc1", "result_type": "TGI", "recorded_result": "> 100 µM"}
{"compound": "CC(C)CC(NC=O)C(=O)NC(Cc1ccccc1)NC(=O)CNC(=O)C(C)NC(=O)C(N)Cc1ccc(O)cc1 (centres undefined)", "result_type": "TGI", "recorded_result": "> 100 µM"}

Prompt line: Look up TGI with RXF 393 renal for this compound: O=C(CCN1CCC(CCO)CC1)Nc1ccc2c(c1)C(=O)c1ccc(NC(=O)CCN3CCC(CCO)CC3)cc1C2=O
Response line: > 100 µM

Prompt line: // lookup TGI | system=RXF 393 renal | key= COc1ccc(-n2c(Cn3nnc(-c4cccnc4)n3)nn(C3OC(COC(=O)c4ccccc4)C(OC(=O)c4ccccc4)C3OC(=O)c3ccccc3)c2=S)cc1 (centres undefined)
Response line: > 100 µM

Prompt line: Query the reported TGI for RXF 393 renal; item: S=C(Nc1ccc2c(c1)oc1ccccc12)c1cccs1
Response line: > 100 µM

Prompt line: Find the measured TGI: item CCCCCCCCCCCCCCCC(=O)Nc1ccn(C2CCC(COP(=O)(O)OCC3OC(n4cc(F)c(=O)[nH]c4=O)CC3OC(C)=O)O2)c(=O)n1 (centres undefined) , target or system RXF 393 renal.
Response line: > 100 µM

Prompt line: I'm curious: which TGI was measured for CCOC(=O)/C(=C/c1ccccc1Br)P(=O)(OCC)OCC tested on RXF 393 renal?
Response line: 2.44 µM

Prompt line: So what TGI did CCOC(=O)c1cn(CC)c2ccc3ccsc3c2c1=O get with RXF 393 renal?
Response line: > 100 µM

Prompt line: Field: TGI (RXF 393 renal). Entry: O=C(O)CCC1CCc2cccc(OCC(=O)O)c2C1=O (centres undefined)
Response line: > 100 µM

---

system: ACHN renal; assay: NCI tumour cell line growth inhibition, 48 h
result_type: TGI

Example results:
{"compound": "O=c1[nH]c2ccccc2n2cc3ccccc3c12", "TGI": "7.18 µM"}
{"compound": "CN(C)c1ccc(/C=c2\\sc3nnc(-c4cccnc4)n3c2=O)cc1", "TGI": "> 100 µM"}
{"compound": "CC(=O)OCC1OC([Se-])C(OC(C)=O)C(OC(C)=O)C1OC(C)=O.N#CCC[PH+](CCC#N)CCC#N.[Au+] (stereo unspecified)", "TGI": "39.4 µM"}
{"compound": "Cc1cccc2c1c(=O)c1c(O)cc3c(c1n2C)C=CC(C)(C)O3", "TGI": "> 100 µM"}
{"compound": "COc1ccccc1N1C(=O)CSC1c1cc(OC)c(OC)c(OC)c1 (stereo unspecified)", "TGI": "> 100 µM"}

API: the following record is the query input.
Prompt line: Name the reported TGI value associated with the compound CN1C(C)(C)CC(=O)C(Br)C1(C)C (stereo unspecified)
Response line: > 100 µM

---

tested on: ACHN renal; experiment: NCI tumour cell line growth inhibition, 48 h
Overview of reported GI50 across a group of compounds:

{"compound": "Cc1ccc(NC(=O)c2nc(S(C)(=O)=O)oc2-c2ccc(F)cc2)cc1Nc1ccc2ncn(C)c(=O)c2c1", "GI50": "1620 nM"}
{"compound": "COc1ccc(/C=C/C(=O)c2ccc(Nc3nc(Nc4ccc(F)cc4)nc(Nc4ccc(Cl)cc4)n3)cc2)cc1", "GI50": "> 100000 nM"}
{"compound": "C/C(=N\\O)c1cccc(Nc2cc(-c3ccccc3)nc3c(O)cccc23)c1", "GI50": "6570 nM"}
{"compound": "O=C1NC(=O)C(c2ccccc2)=C1Nc1ccccc1", "GI50": "> 25000 nM"}
{"compound": "O=C(Cc1ccc(Nc2ccnc(C(F)(F)F)c2)cc1)N/N=C/c1ccccc1O", "GI50": "1460 nM"}

Prompt line: Can you share its GI50? I mean this compound: Cc1cc(C(O)(c2ccc(Nc3ccccc3)cc2)c2ccc(Nc3ccc(S(=O)(=O)O)cc3)cc2)ccc1N (stereo not drawn)
Response line: 1290 nM

Prompt line: Returns the measured GI50 for the input compound. Input: O=C([O-])CCc1ccccc1.O=C([O-])CCc1ccccc1.O=C([O-])CCc1ccccc1.O=C([O-])CCc1ccccc1.[Mo+2].[Mo+2]
Response line: > 100000 nM

Prompt line: Fill in: GI50 of COc1cc(/C=C/C(=O)c2c(C)nc3ccccc3c2C)ccc1OCCCCOc1cc2c(cc1OC)C(=O)N1CCC[C@H]1C=N2 is ___
Response line: 1460 nM
